ASSAY_SYSTEM: human CD28 (human, UniProt P10747 19-220, On cells CD28 is a disulfide linked homodimer and a glycoprotein; one copy of the chain is given.)
Sequence (P10747 19-220 limits assumed): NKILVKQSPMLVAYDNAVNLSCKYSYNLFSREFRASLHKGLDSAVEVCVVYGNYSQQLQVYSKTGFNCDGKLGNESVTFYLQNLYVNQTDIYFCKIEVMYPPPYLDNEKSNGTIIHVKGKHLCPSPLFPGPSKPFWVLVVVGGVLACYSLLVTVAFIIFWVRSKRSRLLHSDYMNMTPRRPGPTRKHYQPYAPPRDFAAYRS
ASSAY_SUMMARY: cell-based or functional assay
OBSERVATION_TYPE: Division Index (with anti-CD3 UCHT1)

Worked examples, 3 binders total:
INSERT INTO measurements (binder, observation_type, recorded_measurement) VALUES
  ('exemplary anti-CD28 antibody AB7 (antibody, V domains shown, Mouse hybridoma monoclonal antibody; Conjugated to PE in the staining assays; also called antibody 7; clone 7) VH: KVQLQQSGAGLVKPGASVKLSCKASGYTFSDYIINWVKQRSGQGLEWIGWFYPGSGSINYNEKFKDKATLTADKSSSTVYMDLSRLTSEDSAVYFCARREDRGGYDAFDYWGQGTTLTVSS VL: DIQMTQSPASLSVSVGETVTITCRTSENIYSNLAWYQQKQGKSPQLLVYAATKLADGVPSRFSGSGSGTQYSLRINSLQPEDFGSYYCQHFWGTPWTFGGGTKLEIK', 'Division Index (with anti-CD3 UCHT1)', 0.96),
  ('exemplary anti-CD28 antibody AB6 (antibody, V domains shown, Mouse hybridoma monoclonal antibody; Conjugated to PE in the staining assays; also called antibody 6; clone 6) VH: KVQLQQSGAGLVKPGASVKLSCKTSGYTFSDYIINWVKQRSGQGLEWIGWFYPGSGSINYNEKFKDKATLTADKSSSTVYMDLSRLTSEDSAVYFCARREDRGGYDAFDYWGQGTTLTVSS VL: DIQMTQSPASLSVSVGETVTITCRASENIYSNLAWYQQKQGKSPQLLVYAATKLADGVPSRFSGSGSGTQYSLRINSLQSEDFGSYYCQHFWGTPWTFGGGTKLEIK', 'Division Index (with anti-CD3 UCHT1)', 1.32),
  ('exemplary anti-CD28 antibody AB2 (antibody, V domains shown, Mouse hybridoma monoclonal antibody; also called antibody 2; clone 2) VH: QVQLQQPGSELMRPGASVKLSCKASGYTFTSYWMHWVKQRHGQGLEWIGNIYPGSGRTIYDEKFKSKATLTVDTSSSTAYMHLSSLTSEDSAVFYCTRSHYGSSFDAMDYWGQGTSVTVSS VL: DIQVNQSPSSLSASLGDTITITCHASQNIYVWLNWYQQKPGNIPKLLIYKASNLHTGVPSRFSGSGSGTGFTLTISSLQPEDIATYYCQQGQSYPWTFGGGTKLEIK', 'Division Index (with anti-CD3 UCHT1)', 0.99);

exemplary anti-CD28 antibody AB5 (antibody, V domains shown, Mouse hybridoma monoclonal antibody; Conjugated to PE in the staining assays; also called antibody 5; clone 5) VH: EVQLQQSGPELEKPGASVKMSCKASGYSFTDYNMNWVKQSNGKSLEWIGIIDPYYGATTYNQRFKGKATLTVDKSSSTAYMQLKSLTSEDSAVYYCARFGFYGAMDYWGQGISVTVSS VL: DVVVTQTPLSLPVSFGDQVSISCRSSQSLANSFGNTYLSWYLHKPGQSPQLLIYGISNRFSGVPDRFSGSGSGTDFTLKISTIKPEDLGVYYCLQGTHQPFTFGSGTTLELK has a reported Division Index (with anti-CD3 UCHT1) of 1.17

Summary for this binder, exemplary anti-CD28 antibody AB4 (antibody, V domains shown, Mouse hybridoma monoclonal antibody; Conjugated to PE in the staining assays; also called antibody 4; clone 4) VH: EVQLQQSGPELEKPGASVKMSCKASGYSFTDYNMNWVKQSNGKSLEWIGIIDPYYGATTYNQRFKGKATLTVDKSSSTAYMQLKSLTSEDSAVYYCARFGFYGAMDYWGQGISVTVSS VL: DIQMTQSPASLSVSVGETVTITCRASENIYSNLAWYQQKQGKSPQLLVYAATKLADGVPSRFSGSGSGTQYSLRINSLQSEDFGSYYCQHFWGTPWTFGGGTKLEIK : Division Index (with anti-CD3 UCHT1) is 1.08
